experiment: soluble fraction after stress (log2 fold change); higher = more stays soluble; pooled small domains, quantitative proteomics; conditions: stress: pH 4
result type: soluble fraction (log2)

Given the sequence HMKNKRERLGIISEILRMQVIGSQEELLDILRAKGYDVTQATLSRDLKVLKVAKTPLSNGAYKYVLPPQ , what is its reported soluble fraction (log2)? ≥ 0.43

Given the sequence HMPELSNNLDRDKVALKNFNESLKDGLTPAEAYANHLTNVSKAAQEAARQSNGLPVDIDKYHNSQLAASMA , what is its reported soluble fraction (log2)? ≥ 0.43

Given the sequence HMGQKDYKTRLQEYFAKQGLKVNYEDTSHGPDHNKNFSTDVFLDGKIIGSGIGKSKKSSQQSAAKDALNIL , what is its reported soluble fraction (log2)? ≥ 0.43

---

For each entry below, report its soluble fraction (log2) value.
assay: soluble fraction after stress (log2 fold change); higher = more stays soluble; pooled small domains, quantitative proteomics; conditions: stress: pH 4

Given the sequence HMQMSPREKMIYSFIESHPGTKSGEIAEKLNVPLPTVKRILSEMVSGNFIAKHGSGIGTNYSTEK , what is its reported soluble fraction (log2)? ≥ 0.43

Given the sequence HMDKELILLWDRVKSKVWQMDIQDSQVANWFQRNYHLTVRLRDFDPPVPPDKFTAEQLASFIKDIERHT , what is its reported soluble fraction (log2)? -0.000327

Given the sequence HMSSIGERISDVRKARGYTQDQLAERIHVSRQTISHWENERALPDFESIKQLSQVLGYDFSS , what is its reported soluble fraction (log2)? 0.0836

Given the sequence HMRRTVIVTAAHAEIRERPDANAPLVFSAEQKVSLDYQETAPGGWVKVRHRDGQSGYVRTNQI , what is its reported soluble fraction (log2)? -0.159

Given the sequence HMGSTATVIASRLNMRASASTTGALLTKIPNGATVTVLGTTGAWSHIRYGSYTGYVMSQYLRING , what is its reported soluble fraction (log2)? -0.211

Given the sequence HMYVTGSAIRRLREKRKLTQAQLAAALSVSDKTVSKWETARGLPDITLLEPLARALQVSVPELLSGEEV , what is its reported soluble fraction (log2)? -0.0388

Given the sequence HMRMSRSARLFDLLHILRSHRRAVSGQALAQQLGISIRTLYRDIASLQAQGAKIEGEPGVGYMLKP , what is its reported soluble fraction (log2)? -0.0136

---

experiment: soluble fraction after stress (log2 fold change); higher = more stays soluble; pooled small domains, quantitative proteomics; settings: stress: pH 4
Classification field: Met = soluble fraction (log2) at or over -0.2; Not met = soluble fraction (log2) under -0.2.

Check this sequence for soluble fraction (log2) at or above -0.2: HMKAQTVPQFVGMTMTEAEEKASELGITLIEGAVVDSVEPKDTILTQDVDEGTEITGKMEIMVTISS Not met

Check this sequence for soluble fraction (log2) at or above -0.2: HMAGPRRRLLDAAIDRAAERGLGDLSLRALAEELGTSHRMLSHHFGSKDGLWLAIVEEVERRQ Not met

Check this sequence for soluble fraction (log2) at or above -0.2: HMVVLNQEQIKFIDHYLQVSKVRYVDVRSELTDHIATAVELKMQDEALDFYEAFKAFIAVNKSQLLQRN Not met

Check this sequence for soluble fraction (log2) at or above -0.2: HMKILNYQSLVGKKGITKSMLRPAGIVEIEGRRYDVVTRGEFIEPGKMITVDEVQGNRIIVQIERE Met

Check this sequence for soluble fraction (log2) at or above -0.2: HMRIQTVDYNTFISMVEDGKVDAAEIQQQENRILFSDQDQKVYKTAMVPDDDLTQRLLDAGVSTNG Not met

Check this sequence for soluble fraction (log2) at or above -0.2: HMQMSWDAVKARLQDIVNNEDKTKPFNDEMLASKLKEQGIEIARRTVVKYRQQLGIPAARLRKK Met

Check this sequence for soluble fraction (log2) at or above -0.2: HMTDFDPDGREKLIKVQKALHFNNHQLADALRVGQATFSSYIYGRVAAGVPVRVVKAAEDLLKNSKATV Met

Check this sequence for soluble fraction (log2) at or above -0.2: HMDRETEEYELIRAKLEWLYQKQTGTIRNQTAKILHHLEIAKEEGNYYLYLKIKEEAKQWLVQASMYLD Not met

Check this sequence for soluble fraction (log2) at or above -0.2: HMQQIAVDLSEFKPRLMRDMSSMLAGLYTHDLDLSSLDFSKVANFTFMFRGAIITGTLKMPKI Met

Check this sequence for soluble fraction (log2) at or above -0.2: HMRKMNDAVFYVEMSRPKRGYYTATYKLITRNPNSLPEHEITRRFFQMLEETIRKNPPYYLWTH Met

Check this sequence for soluble fraction (log2) at or above -0.2: HMGDLKALMPGKVTQVLVSGGQKVKVGEPVLLMESMKMEQTIVATKDGDISEILVSEGDTVEVGKIMIKI Met

---

For each entry below, report its soluble fraction (log2) value.
experiment: soluble fraction after stress (log2 fold change); higher = more stays soluble; pooled small domains, quantitative proteomics; conditions: stress: pH 4
Could you respond with only the numeric value?

Given the sequence HMDSQSVFADLVKSLSQKIASIPVWFEYTKNEQYDLISSYVSAKLKDLGVEFSQEEKEKFITMFMNS , what is its reported soluble fraction (log2)? -0.34

Given the sequence HMTKNEFLASFQNELQKRHIPDWEDVVSEYEQHFALKQADGFSEEEIAAKLGAPAELAAQFEA , what is its reported soluble fraction (log2)? -0.0811

Given the sequence HMPIRMLQVQKTNTGYLNVRDTPSVSGALIGKVFPGDMLSSTEERDGWFLVAVPQGGTGWVSGDYVKTTS , what is its reported soluble fraction (log2)? 0.0778

Given the sequence HMELNGVSETAKSVYSIILNNSSTVDDIVIKTKLPAAKVMQALTELELNDAVERKSGGVYALP , what is its reported soluble fraction (log2)? -0.0324

Given the sequence HMKTSTGSAMYLTLDLAEKYAGQAFTLVHKKADGTFEYLYATADVDGKVKFGPVYELSPFMLVKGQL , what is its reported soluble fraction (log2)? -0.674

Given the sequence HMKPGNFILDLLRTYGQKGTSAQNLMSSSRMFNFSENLIRVTLSRLAARGLIENFERGHYRLAE , what is its reported soluble fraction (log2)? 0.0573

Given the sequence HMAQVSDTGELEGVVDGVLAANAKSVADFQAGKENAFQYLIGQVMKETKGKANPEVVATLLRTKLS , what is its reported soluble fraction (log2)? 0.121

Given the sequence HMGGEGQIEIREREGIPAEAWVDGVMRGQTPLRVEHVSIGTRRVELRAEGRPPVAADVLVRPTVTALVELS , what is its reported soluble fraction (log2)? -0.192

Given the sequence HMVRDGDTFVVPKMDRFARNVEDTLHLVRELTERGVIFQMGHTVYDPHDPWSKLFLTFLAAIAEA , what is its reported soluble fraction (log2)? 0.191

Given the sequence HMSKMTLGENLRLLRREKGLSQEQVAQTLFVARQTISKWENGQAEPGVESLKALAKLYGVSLDRLVGA , what is its reported soluble fraction (log2)? -0.324

Given the sequence HMSRGAIVTGTVIEKNQSGIYVDLGYKSDGIVPIEEFDGEESKYNVGDQIRVYVKKVDDGHGQLML , what is its reported soluble fraction (log2)? -0.135

---

test: soluble fraction after stress (log2 fold change); higher = more stays soluble; pooled small domains, quantitative proteomics; conditions: stress: pH 4
Classification field: condition met = soluble fraction (log2) at or over -0.3; condition not met = soluble fraction (log2) under -0.3.

Check this sequence for soluble fraction (log2) at or above -0.3: HMNSYKGELLVDDKNIRLDLYLFNQFNFFSRTKIKNYILKGNVLVNNNKTSPSYILKGSEKIYYDFSVS condition met

Check this sequence for soluble fraction (log2) at or above -0.3: HMKPRVTVVTLGVDDLERAVRFYAEGLGFPTEGIVGREFEFGAVAFFDMQPGLRLALWPRRSLAHDSGLP condition not met

Check this sequence for soluble fraction (log2) at or above -0.3: HMIAASQVLRDARQRSRLTQAELGRRADVPQSVISAYESARREPSVDMLARLVAAAGFDLRIGLTP condition not met

Check this sequence for soluble fraction (log2) at or above -0.3: HMLRVVSTRQAFDIVRGWADAHPQDPEHNKTLDELEELAKKEVWDDWSRTNEIAERLNALLVSIGANVRTA condition not met

Check this sequence for soluble fraction (log2) at or above -0.3: HMVLNVMIEEEVHREIIAAISKLPKERRRVVELSMAGFSQEEIAEKMAISVNTVKTIKLRAYRVLRERLKG condition met

Check this sequence for soluble fraction (log2) at or above -0.3: HMPKMDGLTVMEQVNQDHFVNKRPYFIVITAVGQEKITEDAFNKGANYYVMKPFNNNMLLERIKSVRK condition met

Check this sequence for soluble fraction (log2) at or above -0.3: HMGWVMLVIMSRGASEAQINAVVEKIRAAGLTEHLSKGIERTIIGAIGEERKLEPEVFELLPGVEQALHIV condition not met

Check this sequence for soluble fraction (log2) at or above -0.3: HMDPTIRRGELIDAASRLFLSKGYAATSVRDILDEVGNRTASPSVFYYYFKSKEEIYQAVLRRHSE condition not met

Check this sequence for soluble fraction (log2) at or above -0.3: HMGIKLSDRQMQIVEIVKSQQPITSEQVAERLNLTRAALRSDLSILTMAGILEARPKVGYSLTGR condition met

Check this sequence for soluble fraction (log2) at or above -0.3: HMNVDALVGMPARVTRAFVQGAGEVKLDNGETWTARLSAGVTDAEASVGQTVSVIAVRGAAVEVAPE condition met
